test system: human hepatoma cell line ET; conditions: read-out: IC50 of compound alone (cytotoxicity); Example 6, single compound
Measured parameter: IC50

[
  {
    "Compound": "CC=CCC(C)C(O)C1C(=O)NC(CC)C(=O)N(C)C(SCCN(C)C)C(=O)N(C)C(CC(C)(C)O)C(=O)NC(C(C)C)C(=O)N(C)C(CC(C)C)C(=O)NC(C)C(=O)NC(C)C(=O)N(C)C(CC(C)C)C(=O)N(C)C(CC(C)C)C(=O)N(C)C(C(C)C)C(=O)N1C (stereo not shown)",
    "Measured parameter": "IC50",
    "Result": "> 2 µM"
  }
]
